B1: HDV Ribozyme (parent)
chain: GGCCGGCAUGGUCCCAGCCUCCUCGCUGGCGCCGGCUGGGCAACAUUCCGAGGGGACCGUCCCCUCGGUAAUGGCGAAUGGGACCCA

Variants of: B1
Test: self-cleavage, relative activity (ratio to wild type); higher = more cleavage; co-transcriptional
Assay Endpoint: self-cleavage
// response body must contain only the number

Mutant Id: C19A U47G
self-cleavage: 0.0361

Mutant Id: A16G G31C
self-cleavage: 0.208

Mutant Id: G54C G76A
self-cleavage: 1.1

Turning to the following variant.
[in] I am curious: what self-cleavage value has been reported for G76A U79C ?
[out] 0.964

The measured values listed here are drawn from the RNAGym collection of RNA variant scans (doi:10.7554/elife.80360).
